Tested on: SF-268 CNS
assay_method_text: NCI tumour cell line growth inhibition, 48 h
# TGI annotations
parameter: TGI

CC(C)CCC[C@@H](C)[C@H]1CC[C@H]2[C@@H]3CC[C@H]4C[C@H](N)CC[C@]4(C)[C@H]3CC[C@]12C = > 100 µM
CCOc1ccc(NC(=O)C2=C(C)NC(C)=C(C(=O)Nc3ccc(OCC)cc3)C2c2ccc(O)c(OC)c2)cc1 = > 100 µM
COc1cc(-n2cc(-c3ccc(F)cc3)nc2SCc2ccccc2)cc(OC)c1OC = > 100 µM

* * *

System: HT29 colon
assay_method_text: NCI tumour cell line growth inhibition, 48 h
parameter: TGI

CC(=O)Oc1cc(C)c2c(c1OC(C)=O)CC1(O2)[C@@H](C)CCC2[C@@]3(C)CC[C@H](OC(C)=O)C(C)(C)C3CC[C@]21C (stereo partly specified) = 19.6 µM
COc1ccc(N(CN2C(=O)CCC2C(=O)O)C(C)=O)cc1 (stereo unspecified) = > 100 µM
CSc1nc(NC2OCC(OC(C)=O)C(OC(C)=O)C2OC(C)=O)c(N=C(C)C(C)=O)c(=O)[nH]1 (stereo unspecified) = > 100 µM
CC(=O)O[C@]12CCCCC1C1(O)C(O)CCCCC12 (stereo partly specified) = > 100 µM
O=C(CCC(=O)Nc1cccc(Cl)c1)CC(=O)c1ccc(F)cc1 = > 100 µM
CO/C=C(/C(=O)OC)c1ccccc1[C@@H]1CC1c1cccc(F)c1 (stereo partly specified) = > 100 µM
Cc1nc2c(n1C)C(=O)c1nc(CBr)[nH]c(=O)c1C2=O = > 100 µM
COc1cc(-n2cc(-c3ccc(F)cc3)nc2SCc2ccccc2)cc(OC)c1OC = > 100 µM
C#CCNC(=O)NCCCC(NC(C)=O)C(=O)NCc1ccccc1 (stereo unspecified) = > 100 µM
Clc1cc2c(cc1Cl)Oc1cc(Cl)c(Cl)cc1O2 = > 0.625 µM
Cc1ccc(N=NC2S/C(=C(\C#N)c3nc4ccccc4[nH]3)N(c3ccccc3)C2=O)cc1 (stereo unspecified) = > 100 µM
